Listed here: items and their measured % Positive cells.
- assayed.system: T1, human CCR8 (human, UniProt P51685 1-355)
- T1 construct: Native CCR8 on human PBMC (CCR8+ CD3+ or CCR8+ CD4+ lymphocytes); also called chemokine (C-C motif) receptor 8
- T1 sequence (P51685 whole entry): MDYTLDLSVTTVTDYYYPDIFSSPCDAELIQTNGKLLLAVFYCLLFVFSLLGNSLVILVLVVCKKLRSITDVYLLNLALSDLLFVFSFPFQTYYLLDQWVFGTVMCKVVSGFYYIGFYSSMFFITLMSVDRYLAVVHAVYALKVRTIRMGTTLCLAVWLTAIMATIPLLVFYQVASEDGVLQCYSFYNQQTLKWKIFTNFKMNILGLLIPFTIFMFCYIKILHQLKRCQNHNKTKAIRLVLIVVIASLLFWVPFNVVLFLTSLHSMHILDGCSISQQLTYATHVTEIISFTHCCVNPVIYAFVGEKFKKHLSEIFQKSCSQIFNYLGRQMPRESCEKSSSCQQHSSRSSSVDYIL
- test.details: flow blocking, PBMC CCR8+CD4+; competitor PE-AB12
- Protocol: For blocking studies, 100 μL of the cell suspension were incubated with 10 μg purified isotype control, AB1, AB2, AB3, AB4, AB5, AB8, AB9, AB10, AB11, AB12, AB13, AB14, AB15, and Commercial ABI antibodies, or isotype control, as blocking agents. […]
Write the answer as a number in %, unit excluded.

Previously resolved entries follow.
binder | property.label | unit.spec | reported.result
AB11 (antibody, V domains shown, Hybridoma monoclonal; also called antibody 11; clone 11) VH: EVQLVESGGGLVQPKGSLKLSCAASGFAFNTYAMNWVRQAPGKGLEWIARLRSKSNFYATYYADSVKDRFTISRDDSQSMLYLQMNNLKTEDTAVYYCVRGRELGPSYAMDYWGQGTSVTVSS VL: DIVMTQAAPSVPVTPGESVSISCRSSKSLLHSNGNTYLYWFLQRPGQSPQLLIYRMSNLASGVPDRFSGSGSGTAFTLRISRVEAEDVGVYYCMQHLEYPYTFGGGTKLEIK | % Positive cells | % | 0.03
AB10 (antibody, V domains shown, Hybridoma monoclonal; also called antibody 10; clone 10) VH: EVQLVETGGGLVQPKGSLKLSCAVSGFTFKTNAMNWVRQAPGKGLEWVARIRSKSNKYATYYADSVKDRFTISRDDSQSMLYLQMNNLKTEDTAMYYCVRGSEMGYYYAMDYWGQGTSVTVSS VL: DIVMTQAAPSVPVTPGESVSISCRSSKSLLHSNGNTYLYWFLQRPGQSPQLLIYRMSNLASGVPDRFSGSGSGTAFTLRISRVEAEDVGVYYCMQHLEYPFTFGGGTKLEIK | % Positive cells | % | 0.02
AB5 (antibody, V domains shown, Hybridoma monoclonal; Same VH/VL entries as AB6; also called antibody 5; clone 5) VH: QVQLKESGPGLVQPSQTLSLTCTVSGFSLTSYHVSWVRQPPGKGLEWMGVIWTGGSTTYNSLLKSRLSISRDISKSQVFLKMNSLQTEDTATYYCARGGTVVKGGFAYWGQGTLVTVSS VL: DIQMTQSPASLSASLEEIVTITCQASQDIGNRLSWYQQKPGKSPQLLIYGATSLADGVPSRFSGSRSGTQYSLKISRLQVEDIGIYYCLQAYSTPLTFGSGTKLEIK | % Positive cells | % | 1.8
AB4 (antibody, V domains shown, Hybridoma monoclonal; also called antibody 4; clone 4) VH: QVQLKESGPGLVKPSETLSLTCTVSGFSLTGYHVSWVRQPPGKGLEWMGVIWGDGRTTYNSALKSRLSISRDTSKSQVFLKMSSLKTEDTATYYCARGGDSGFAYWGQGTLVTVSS VL: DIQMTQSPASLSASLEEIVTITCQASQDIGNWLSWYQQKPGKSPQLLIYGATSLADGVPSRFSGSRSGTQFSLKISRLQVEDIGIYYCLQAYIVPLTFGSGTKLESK | % Positive cells | % | 1.78

Data request: Look up % Positive cells: AB13 (antibody, V domains shown, Hybridoma monoclonal; also called antibody 13; clone 13) VH: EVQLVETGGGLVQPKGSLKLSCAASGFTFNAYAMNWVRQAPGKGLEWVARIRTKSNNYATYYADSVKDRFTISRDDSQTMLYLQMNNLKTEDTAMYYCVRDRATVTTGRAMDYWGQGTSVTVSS VL: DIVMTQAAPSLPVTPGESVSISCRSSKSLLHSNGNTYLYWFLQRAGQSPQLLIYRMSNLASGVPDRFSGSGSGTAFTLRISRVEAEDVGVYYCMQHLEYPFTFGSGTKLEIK
Data returned: 0.01

Data request: Look up % Positive cells: AB14 (antibody, V domains shown, Hybridoma monoclonal; Same VH/VL entries as AB15; also called antibody 14; clone 14) VH: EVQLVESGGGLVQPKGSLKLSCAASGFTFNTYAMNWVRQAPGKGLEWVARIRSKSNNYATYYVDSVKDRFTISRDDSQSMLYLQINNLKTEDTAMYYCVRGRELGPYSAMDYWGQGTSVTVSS VL: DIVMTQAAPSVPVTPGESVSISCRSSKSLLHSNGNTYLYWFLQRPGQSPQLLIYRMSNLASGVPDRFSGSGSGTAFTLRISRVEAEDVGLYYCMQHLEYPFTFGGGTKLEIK
Data returned: 0.01

Data request: Look up % Positive cells: AB12 (antibody, V domains shown, Hybridoma monoclonal; also called antibody 12; clone 12) VH: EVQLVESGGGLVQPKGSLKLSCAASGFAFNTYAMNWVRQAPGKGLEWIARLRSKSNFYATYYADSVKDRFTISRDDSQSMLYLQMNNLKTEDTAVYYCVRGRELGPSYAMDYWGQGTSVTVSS VL: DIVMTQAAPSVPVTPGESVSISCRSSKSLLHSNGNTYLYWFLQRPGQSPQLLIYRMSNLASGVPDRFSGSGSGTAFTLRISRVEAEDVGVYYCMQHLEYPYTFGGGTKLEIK
Data returned: 0.01
